PROCEDURE DETAILS: photoluminescence quantum yield (fraction); solvent given as SMILES
TEST CONTEXT: in CCCCCC
READOUT: photoluminescence quantum yield

c1ccc2c(-c3cc(-c4nccs4)nc(-c4nccs4)c3)cccc2c1: 0.411
CN(C)c1cc(C#N)c(N(C)C)c(C#N)c1: 0.38
F[B-]1(F)n2c(ccc2-c2cccs2)C(C(F)(F)F)=C2C=CC(c3cccs3)=[N+]21: 1
Cc1ccc(N(c2ccc(C)cc2)c2ccc(-c3ccc4c(c3)C(=O)c3ccccc3C4=O)cc2)cc1: 0.403
COc1ccc2c(c1)N(c1ccccc1-c1ccccc1)c1cc3c(cc1=N2)Oc1c(cc(C(C)(C)C)cc1C(C)(C)C)N=3: 0.34
N#Cc1ccc(N)cc1: 0.09
COc1ccc(N(c2ccc(OC)cc2)c2cc3ccc4cc(B(c5c(C)cc(C)cc5C)c5c(C)cc(C)cc5C)cc5ccc(c2)c3c45)cc1: 0.22
CCCCCCC1(CCCCCC)c2cc(-c3nc(-c4ccc5c(c4)C(CCCCCC)(CCCCCC)c4cc(N6c7ccccc7Sc7ccccc76)ccc4-5)nc(-c4ccc5c(c4)C(CCCCCC)(CCCCCC)c4cc(N6c7ccccc7Sc7ccccc76)ccc4-5)n3)ccc2-c2ccc(N3c4ccccc4Sc4ccccc43)cc21: 0.04
C/C=C/c1ccc(OC)cc1: 0.35
CCC1=C(C)C2=Cc3c4ccccc4c4n3[B-](c3ccncc3)(Oc3ccccc3-4)[N+]2=C1C=Cc1ccc(OC)cc1 (stereo unspecified): 0.36
COc1cccc(OC)c1C1=C2C(C)=CC(C)=[N+]2[B-](F)(F)n2c(C)cc(C)c21: 0.71

====

# reported photoluminescence quantum yield; entries follow
PROCEDURE DETAILS: photoluminescence quantum yield (fraction); solvent given as SMILES
TEST CONTEXT: in ClC(Cl)Cl
READOUT: photoluminescence quantum yield

N#Cc1ccc(/C=C/c2c3ccccc3cc3ccccc23)cc1: 0.05
c1ccc(-c2cc(-c3ccc(-c4nc(-c5ccccn5)c(-c5ccccn5)[nH]4)cc3)cc(-c3ccccn3)n2)nc1: 0.13
N#CC(C#N)=Cc1ccc(-c2ccc(N(c3ccccc3)c3ccccc3)cc2)s1: 0.18
CCCCCCC(CCCCCC)n1c(=O)c2c3ccc4cccc5c6cccc7ccc(c2c1=O)c(c76)c3c45: 0.35
COc1cc2c(cc1C=C(C#N)C#N)c1ccccc1n2C: 0.004
COc1ccc(C2=Cc3c4ccccc4c4ccccc4[n+]3[B-](F)(F)O2)cc1: 0.678
C[Si](C)(C)C#CC(C#C[Si](C)(C)C)=Cc1ccc(C=C(C#C[Si](C)(C)C)C#C[Si](C)(C)C)s1: 0.01
CN(C)c1ccc(C#Cc2ccc(-c3nc(C#N)c(C#N)n3C)cc2)cc1: 0.88
N#Cc1nc(N(Cc2ccccc2)Cc2ccccc2)c(C#N)nc1N(Cc1ccccc1)Cc1ccccc1: 0.76
COC(=O)c1cc(=O)n(C)c2cc(-c3cc4c5c(c3)CCCN5CCC4)sc12: 0.48
CCCCc1cc(-c2cccc(COC)c2)oc1-c1cccc(COC)c1: 0.87
COc1ccc(N(c2ccc(OC)cc2)c2ccc(-c3ccc(-c4ccc(-c5cccs5)c5nsnc45)s3)cc2)cc1: 0.28
CC(C)(C)c1ccc2oc3nc4oc5ccc(-n6c7ccccc7c7cc(-n8c9ccccc9c9ccccc98)ccc76)cc5c4cc3c2c1: 0.15
O=C1CCCC2=C1CC1=C(CCCC1=O)N2NC(=O)c1ccccc1: 0.62
CN1C(=O)c2cccc3c(-n4c5ccccc5c5ccccc54)ccc(c23)C1=O: 0.204
F[B-]1(F)OC(c2ccccc2)=Cc2c3ccccc3c3ccccc3[n+]21: 0.131
CCCCN1C(=O)c2cc(Oc3ccc(C(C)(C)C)cc3)c3c4c(Oc5ccc(C(C)(C)C)cc5)c(Oc5ccc(C(C)(C)C)cc5)c5c6c(cc(Oc7ccc(C(C)(C)C)cc7)c(c7c(Oc8ccc(C(C)(C)C)cc8)c(Oc8ccc(C(C)(C)C)cc8)c(c2c37)C1=O)c64)C(=O)N(CCCC)C5=O: 0.75
CCOC(=O)C(C(=O)OCC)C1=[N+]2C(=C(c3ccc(C)cc3)c3ccc(Cl)n3[B-]2(F)F)C=C1: 0.52
Cc1cc(=O)oc2cc3c4ccccc4c4ccccc4c3cc12: 0.12
Cc1c2c(c(C)c3ccccc13)-c1cc3nc4ccccc4nc3cc1-2: 0.72
O=c1oc2ccccc2cc1-c1cn2ccccc2n1: 0.15
CCc1ccc(-n2c3ccccc3c3cc4c(cc32)c2ccccc2n4-c2ccc(CC)s2)s1: 0.023
N#CC1=CC(C#Cc2ccccc2)=CC(C#N)=P1(c1ccccc1)c1ccccc1: 0.61
CCCCCCC(CCCCCC)N1C(=O)c2cccc3c(-c4ccc(OC)c5ccccc45)ccc(c23)C1=O: 0.39
CCc1cc(CC)cc(-n2c3ccccc3c3cc4c(cc32)c2ccccc2n4-c2cc(CC)cc(CC)c2)c1: 0.14
F[B-]1(F)n2c(ccc2-c2cccs2)C(c2ccc(Br)cc2)=C2C=CC(c3cccs3)=[N+]21: 0.82
COc1cc2c3cc(OC)c(OC)cc3c3cc4c(C)cc(=O)oc4cc3c2cc1OC: 0.08
Cc1cccc(C2=Cc3c4ccccc4cc[n+]3[B-](F)(F)O2)c1: 0.06
CN(C)c1ccc(/C=C/c2ccc(-c3nc(C#N)c(C#N)n3C)cc2)cc1: 0.16
CCCCCCCN1C(=CC2=C([O-])C(=CC3=[N+](CCCCCCC)c4ccccc4C3(C)C)C2=C(C#N)C#N)Sc2ccccc21: 0.17

====

# reported photoluminescence quantum yield; entries follow
PROCEDURE DETAILS: photoluminescence quantum yield (fraction); solvent given as SMILES
TEST CONTEXT: in C1CCOC1
READOUT: photoluminescence quantum yield

COc1cccc(OC)c1C1=C2C(C)=CC(C)=[N+]2[B-](F)(F)n2c(C)cc(C)c21: 0.64
CN(C)c1ccc(C(=O)Nc2cccc(Cl)c2)cc1: 0.0263
Cc1cc(-c2ccc(-c3ccccc3)cc2)nc(-c2ccc(-n3c4ccccc4c4ccccc43)cc2)n1: 0.22
COc1ccc(N(c2ccc(OC)cc2)c2cc3ccc4cc(B(c5c(C)cc(C)cc5C)c5c(C)cc(C)cc5C)cc5ccc(c2)c3c45)cc1: 0.44

====

PROCEDURE DETAILS: photoluminescence quantum yield (fraction); solvent given as SMILES
TEST CONTEXT: in Cc1ccccc1
Response field label: string, one of MET (photoluminescence quantum yield strictly below 0.2) or NOT MET.

COc1ccc(-c2csc(/C(C#N)=N\Nc3ccc(C#N)cc3)n2)cc1: MET
N#CC(C#N)=Cc1ccc2nc(C#Cc3ccc(N(c4ccc(C#Cc5nc6ccc(C=C(C#N)C#N)cc6s5)cc4)c4ccc(C#Cc5nc6ccc(C=C(C#N)C#N)cc6s5)cc4)cc3)sc2c1: NOT MET
COc1ccc(N(c2ccc(/C=C(\C)c3ccccc3)cc2)c2ccc(OC)cc2)cc1: NOT MET
COC(=O)c1ccc(-c2cc3ccc4cccc5ccc(c2)c3c45)cc1: NOT MET
CCN(CC)c1ccc2cc(/C=C/C(=O)/C=C(O)/C=C/c3cc4ccc(N(CC)CC)cc4oc3=O)c(=O)oc2c1: NOT MET
Cc1nnc(-c2cc(-c3nnc(C)o3)c(-n3c4ccccc4c4ccccc43)cc2-n2c3ccccc3c3ccccc32)o1: MET
CC(C)(C)c1ccc(C2=C(Br)C3=C(c4ccccc4)c4c(Br)c(-c5ccc(C(C)(C)C)cc5)c(-c5ccc(C(C)(C)C)cc5)n4[B-](F)(F)[N+]3=C2c2ccc(C(C)(C)C)cc2)cc1: MET
CCCCN1C(=O)C(=C/C=C/C=C2N(CCCC)c3ccccc3N2CCCC)C(=O)N(CCCC)C1=S: MET
COC(=O)/C(C#N)=c1\s/c(=c2/s/c(=C(/C#N)C(=O)OC)c3cc(-c4ccccc4)sc23)c2sc(-c3ccccc3)cc12: NOT MET
CCCCCCCCCCCCC1(CCCCCCCCCCCC)c2cc(-c3ccc(C=C4C(=O)c5ccccc5C4=O)cc3)ccc2-c2ccc(-c3ccc(C=C4C(=O)c5ccccc5C4=O)cc3)cc21: MET
CC1(C)c2ccccc2N(c2ccc3c(c2)Oc2ccccc2S3(=O)=O)c2ccccc21: NOT MET

====

PROCEDURE DETAILS: photoluminescence quantum yield (fraction); solvent given as SMILES
TEST CONTEXT: in C1COCCO1
If the reported photoluminescence quantum yield equals or exceeds 0.4, assign yes (1). If not, assign no (0).

CCCCC1=Cc2c3ccc4cccc5ccc(c6cc(-c7ccccc7)n(c26)P1(=O)c1ccccc1)c3c45 (stereo unspecified): yes (1)
CCC12C(=C3C(=C4c5ccc(-c6ccc(C)s6)cc5S(=O)(=O)C41CC)C(F)(F)C(F)(F)C3(F)F)c1ccc(-c3ccc(C)s3)cc1S2(=O)=O (stereo unspecified): yes (1)
CCOC(=O)C1=C(C)NC2=C(C(=O)c3ccccc32)C1c1ccc(N(C)C)cc1 (stereo unspecified): yes (1)
COC(=O)C(Cc1ccc2oc(-c3ccc(-n4c5ccccc5c5ccccc54)cc3)nc2c1)NC(=O)OC(C)(C)C (stereo unspecified): yes (1)
COC(=O)c1ccc2c3ccc(C(=O)OC)c4c(C(=O)OC)ccc(c5ccc(C(=O)OC)c1c25)c43: yes (1)
COc1ccc2n1[B-](F)(F)[N+]1=C(c3ccccc3)C=CC1=C2c1ccc(C)cc1: no (0)
Cc1nc2cc(/C=C/c3ccc(N(C)C)cc3)ccc2nc1-c1ccccc1: no (0)
Cc1cc2c(o1)c(C)cc1ccc(=O)oc12: no (0)
CC(C)CN1C(=O)/C(=C/c2ccc(C#N)cc2)C=C1c1ccccc1: no (0)
COc1ccc(C2=N/C(=C\c3ccccc3)C(=O)O2)cc1OC: no (0)
CCC1=C(C2=C(C3=C(CC)S(=O)(=O)c4ccccc43)C(F)(F)C(F)(F)C2(F)F)c2ccccc2S1(=O)=O: no (0)
CC1(C)Cc2c(c3ccccc3c3nc4c(nc23)c2c(c3ccccc34)OC(C)(C)C2)O1: yes (1)
CN(C)c1ccc(/C=C/c2nc3ccccc3s2)cc1: no (0)
CNc1ncc2nc(C(=O)OC)n(Cc3ccccc3)c2n1: yes (1)
CC(C)(C)NS(=O)(=O)c1ccc2c(c1)C(=O)/C(=C1\Sc3ccc(S(=O)(=O)NC(C)(C)C)cc3C1=O)S2: yes (1)
O=Cc1cc(O)ccc1O: no (0)
